# Tested on: T1, human CD8αα homodimer, recombinant protein (Acro Biosystems) (human, UniProt P01732 22-182)
# T1 construct: also called CD8αα antigen; biotinylated CD8α recombinant protein (CDA-H82E3)
# T1 sequence (P01732 22-182 limits assumed): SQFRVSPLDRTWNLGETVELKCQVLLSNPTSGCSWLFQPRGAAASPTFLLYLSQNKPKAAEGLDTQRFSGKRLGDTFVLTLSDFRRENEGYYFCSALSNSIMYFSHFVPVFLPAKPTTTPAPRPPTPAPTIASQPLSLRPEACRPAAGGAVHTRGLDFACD
# Method description: BLI kinetics, F(ab) on biotinylated CD8α (SA-XT sensor), 1:1 fit, 37 °C [CONT'ED]
Experimental readout: koff (s⁻¹)
Give the quantity in s⁻¹, number only.

Example entries begin here.
CBD1035 (Fab, V domains shown, also called h1017-H3/L2 F(ab)) VH: QVQLVQSGAEVKKPGASVKISCKASRYTFTDYNLHWVRQAPGQGLEWIGFIYPYNGGTGYAQKFQGRATLTVDTSTSTAYMELSSLRSEDTAVYYCARDHRYNEGVSFDYWGQGTTLTVSS VL: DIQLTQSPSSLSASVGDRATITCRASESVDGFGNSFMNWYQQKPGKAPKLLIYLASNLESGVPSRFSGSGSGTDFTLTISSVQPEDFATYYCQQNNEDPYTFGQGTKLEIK	9.12e-05
CBD1037 (Fab, V domains shown, also called h1017-H4/L2 F(ab)) VH: QVQLVQSGAEVKKPGASVKVSCKASRYTFTDYNLHWVRQAPGQGLEWMGFIYPYNGGTGYAQKFQGRVTMTVDYSTSTAYMELSSLRSEDTAVYYCARDHRYNEGVSFDYWGQGTTVTVSS VL: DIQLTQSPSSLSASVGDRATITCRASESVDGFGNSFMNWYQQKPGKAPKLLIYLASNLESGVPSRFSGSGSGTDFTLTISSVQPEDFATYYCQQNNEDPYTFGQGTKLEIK	9.71e-05

Pending binder:
Kindly note the recorded koff for CBD1017ch Fab (chimeric CT8 Fab) (Fab, V domains shown, Chimeric: variable regions of mouse CT8 (clone RPA-T8) with human constant parts; also called parental CBD1017ch Fab) VH: EVQLQQSGPELVKPGASVKISCKASRYTFTDYNLHWVKLSHEKSLEWIGFIYPYNGGTGYNQKFKNKAKLTVDYSSSTAYMELRSLTSVDAAVYYCARDHRYNEGVSFDYWGQGTTLTVSS VL: NIVLTQSPASLAVSLGQRATISCRASESVDGFGNSFMNWYQQKPGQSPKLLIYLASNLESGVPARFSGSGSRTDFTLTIDPVEADDAATYYCQQNNEDPYTFGGGTKLEIK , which is 7.53e-05
